The entries below come with measured zone of inhibition at 900 µg/mL values attached.
# System: Staphylococcus aureus
# test-summary: Antibacterial activity against Staphylococcus aureus assessed as growth inhibition at 900 ug/ml by NCCLS […] method
# Format: functional
# protocol-conditions: read-out: IZ
Field format: number, assumed mm, no unit text.

Take a look at these entries with their results.
compound	observed
CN[C@@H]1[C@H](O[C@H]2[C@H](O[C@H]3[C@H](O)[C@@H](O)[C@H](N=C(N)N)[C@@H](O)[C@@H]3N=C(N)N)O[C@@H](C)[C@]2(O)C=O)O[C@@H](CO)[C@H](O)[C@H]1O [STREPTOMYCIN]	20
COc1ccc(CN2CCN(CCCOc3c(-c4ccccc4)c(=O)oc4cc(OC)ccc34)CC2)cc1	6.25
COc1ccc2c(OCCCN3CCN(Cc4ccc(Br)cc4)CC3)c(-c3ccccc3)c(=O)oc2c1	8
COc1ccc2c(OCCCN3CCN(Cc4ccc(F)cc4F)CC3)c(-c3ccccc3)c(=O)oc2c1	6.48
COc1ccc2c(OCCCN3CCN(Cc4ccc[nH]4)CC3)c(-c3ccccc3)c(=O)oc2c1	25.3

Next compound, zone of inhibition at 900 µg/mL to be filled in.
Short answer for CCCOc1ccc(CN2CCN(CCCOc3c(-c4ccccc4)c(=O)oc4cc(OC)ccc34)CC2)cc1 : zone of inhibition at 900 µg/mL was 3.25

* * *

# Tested on: Colletotrichum falcatum
# test-summary: Antifungal activity against Glomerella tucumanensis assessed as growth inhibition at 1200 ug/ml
# Type: functional
# protocol-conditions: read-out: IZ
outcome-measure: zone of inhibition at 1200 µg/mL

compound	outcome-measure	observed
COc1ccc2c(OCCCN3CCN(Cc4ccc[nH]4)CC3)c(-c3ccccc3)c(=O)oc2c1	zone of inhibition at 1200 µg/mL	19.6 mm
COc1ccc2c(OCCCN3CCN(Cc4ccc(Br)cc4)CC3)c(-c3ccccc3)c(=O)oc2c1	zone of inhibition at 1200 µg/mL	33.8 mm

Field zone of inhibition at 1200 µg/mL (Colletotrichum falcatum), entry CCCOc1ccc(CN2CCN(CCCOc3c(-c4ccccc4)c(=O)oc4cc(OC)ccc34)CC2)cc1 : 32.5 mm

Reported Colletotrichum falcatum zone of inhibition at 1200 µg/mL for item COc1ccc2c(OCCCN3CCN(Cc4cccnc4)CC3)c(-c3ccccc3)c(=O)oc2c1 was 27 mm

Assay Colletotrichum falcatum, sample COc1ccc(CN2CCN(CCCOc3c(-c4ccccc4)c(=O)oc4cc(OC)ccc34)CC2)cc1 , zone of inhibition at 1200 µg/mL read: 31.8 mm

# lookup: CCC(C)n1ncn(-c2ccc(N3CCN(c4ccc(OCC5COC(Cn6cncn6)(c6ccc(Cl)cc6Cl)O5)cc4)CC3)cc2)c1=O (stereo not drawn) [ITRACONAZOLE] on Colletotrichum falcatum, zone of inhibition at 1200 µg/mL = 33.8 mm

Per the reported Colletotrichum falcatum data, COc1ccc2c(OCCCN3CCN(Cc4ccc(Cl)cc4Cl)CC3)c(-c3ccccc3)c(=O)oc2c1 has zone of inhibition at 1200 µg/mL of 26.4 mm

Summary line: COc1ccc2c(OCCCN3CCN(Cc4ccc(F)cc4F)CC3)c(-c3ccccc3)c(=O)oc2c1 , Colletotrichum falcatum, reported zone of inhibition at 1200 µg/mL = 25.9 mm

* * *

zone of inhibition at 600 µg/mL listing for selected compounds.
# Tested on: Streptococcus pyogenes
# test-summary: Antibacterial activity against Streptococcus pyogenes assessed as growth inhibition at 600 ug/ml by NCCLS […] method
# Format: functional
# protocol-conditions: read-out: IZ
A complete answer gives the number and then names the unit.

Example entries begin here.
smiles	zone of inhibition at 600 µg/mL
COc1ccc2c(OCCCN3CCN(Cc4ccc[nH]4)CC3)c(-c3ccccc3)c(=O)oc2c1	9.1 mm
CN[C@@H]1[C@H](O[C@H]2[C@H](O[C@H]3[C@H](O)[C@@H](O)[C@H](N=C(N)N)[C@@H](O)[C@@H]3N=C(N)N)O[C@@H](C)[C@]2(O)C=O)O[C@@H](CO)[C@H](O)[C@H]1O	8.19 mm
COc1ccc(CN2CCN(CCCOc3c(-c4ccccc4)c(=O)oc4cc(OC)ccc34)CC2)cc1	2.08 mm

We next turn to a different compound, shown below.
zone of inhibition at 600 µg/mL recorded for this compound, CCCOc1ccc(CN2CCN(CCCOc3c(-c4ccccc4)c(=O)oc4cc(OC)ccc34)CC2)cc1 , is 3.25 mm

* * *

Recorded zone of inhibition at 600 µg/mL values for a group of molecules are listed next.
# Test system: Proteus vulgaris
# test-summary: Antibacterial activity against Proteus vulgaris assessed as growth inhibition at 600 ug/ml by NCCLS […] method
# Assay type: functional
# protocol-conditions: read-out: IZ
I only need the number, in mm, no unit after it.

Some solved cases for reference:
smiles	zone of inhibition at 600 µg/mL [mm]
CN[C@@H]1[C@H](O[C@H]2[C@H](O[C@H]3[C@H](O)[C@@H](O)[C@H](N=C(N)N)[C@@H](O)[C@@H]3N=C(N)N)O[C@@H](C)[C@]2(O)C=O)O[C@@H](CO)[C@H](O)[C@H]1O	8.9
COc1ccc2c(OCCCN3CCN(Cc4ccc(Cl)cc4Cl)CC3)c(-c3ccccc3)c(=O)oc2c1	4.02

What the record says about COc1ccc2c(OCCCN3CCN(Cc4ccc(Br)cc4)CC3)c(-c3ccccc3)c(=O)oc2c1 : zone of inhibition at 600 µg/mL is 5.02

Query COc1ccc(CN2CCN(CCCOc3c(-c4ccccc4)c(=O)oc4cc(OC)ccc34)CC2)cc1 yields zone of inhibition at 600 µg/mL of 2

So for COc1ccc2c(OCCCN3CCN(Cc4ccc[nH]4)CC3)c(-c3ccccc3)c(=O)oc2c1 , the logged zone of inhibition at 600 µg/mL turned out to be 8.12

* * *

# Test system: Exserohilum rostratum
# test-summary: Antifungal activity against Setosphaeria rostrata assessed as growth inhibition at 600 ug/ml
# Type: functional
# protocol-conditions: read-out: IZ
Please enter 1 where zone of inhibition at 600 µg/mL is greater than or equal to 7 mm, and 0 where it is lower.

# example entries with known answers
molecule	classification
CCCOc1ccc(CN2CCN(CCCOc3c(-c4ccccc4)c(=O)oc4cc(OC)ccc34)CC2)cc1	0
COc1ccc2c(OCCCN3CCN(Cc4ccc(Br)cc4)CC3)c(-c3ccccc3)c(=O)oc2c1	1
COc1ccc2c(OCCCN3CCN(Cc4ccc(F)cc4F)CC3)c(-c3ccccc3)c(=O)oc2c1	1

Task: Could you please find out whether COc1ccc(CN2CCN(CCCOc3c(-c4ccccc4)c(=O)oc4cc(OC)ccc34)CC2)cc1 has zone of inhibition at 600 µg/mL that meets 7 mm or exceeds it?
Output: 1

Task: Check this molecule for zone of inhibition at 600 µg/mL at or above 7 mm: COc1ccc2c(OCCCN3CCN(Cc4cccnc4)CC3)c(-c3ccccc3)c(=O)oc2c1
Output: 0

Task: Tell me whether zone of inhibition at 600 µg/mL is at least 7 mm here: COc1ccc2c(OCCCN3CCN(Cc4ccccc4)CC3)c(-c3ccccc3)c(=O)oc2c1
Output: 1

Task: Dear colleague, could you confirm whether COc1ccc2c(OCCCN3CCN(Cc4ccc(Cl)cc4Cl)CC3)c(-c3ccccc3)c(=O)oc2c1 has zone of inhibition at 600 µg/mL at or above 7 mm?
Output: 0

Task: Hi, just wondering whether CCC(C)n1ncn(-c2ccc(N3CCN(c4ccc(OCC5COC(Cn6cncn6)(c6ccc(Cl)cc6Cl)O5)cc4)CC3)cc2)c1=O (centres undefined) shows zone of inhibition at 600 µg/mL of 7 mm or higher.
Output: 1

* * *

# zone of inhibition at 300 µg/mL per record follows
# System: Exserohilum rostratum
# test-summary: Antifungal activity against Setosphaeria rostrata assessed as growth inhibition at 300 ug/ml
# Type: functional
# protocol-conditions: read-out: IZ
Don't forget the unit after the number, please.

compound	zone of inhibition at 300 µg/mL
COc1ccc2c(OCCCN3CCN(Cc4ccc(Cl)cc4Cl)CC3)c(-c3ccccc3)c(=O)oc2c1	2.89 mm

Measured zone of inhibition at 300 µg/mL, CCC(C)n1ncn(-c2ccc(N3CCN(c4ccc(OCC5COC(Cn6cncn6)(c6ccc(Cl)cc6Cl)O5)cc4)CC3)cc2)c1=O (centres undefined) : 3.56 mm

zone of inhibition at 300 µg/mL recorded for this compound, COc1ccc2c(OCCCN3CCN(Cc4ccccc4)CC3)c(-c3ccccc3)c(=O)oc2c1 , is 4.25 mm

So, COc1ccc(CN2CCN(CCCOc3c(-c4ccccc4)c(=O)oc4cc(OC)ccc34)CC2)cc1 ? Its zone of inhibition at 300 µg/mL was 3.8 mm

* * *

# System: Proteus mirabilis
# test-summary: Antibacterial activity against Proteus mirabilis assessed as growth inhibition at 600 ug/ml by NCCLS […] method
# Assay type: functional
# protocol-conditions: read-out: IZ
Measured zone of inhibition at 600 µg/mL values are reported for all entries that follow.
Answer format: numeric, mm implied, no suffix.

Guide cases for zone of inhibition at 600 µg/mL, answers given:
compound	observed
COc1ccc2c(OCCCN3CCN(Cc4ccc(Br)cc4)CC3)c(-c3ccccc3)c(=O)oc2c1	4.28
COc1ccc2c(OCCCN3CCN(Cc4cccnc4)CC3)c(-c3ccccc3)c(=O)oc2c1	11.3
COc1ccc2c(OCCCN3CCN(Cc4ccc(Cl)cc4Cl)CC3)c(-c3ccccc3)c(=O)oc2c1	4.91
CN[C@@H]1[C@H](O[C@H]2[C@H](O[C@H]3[C@H](O)[C@@H](O)[C@H](N=C(N)N)[C@@H](O)[C@@H]3N=C(N)N)O[C@@H](C)[C@]2(O)C=O)O[C@@H](CO)[C@H](O)[C@H]1O [STREPTOMYCIN]	12.8
COc1ccc2c(OCCCN3CCN(Cc4ccc(F)cc4F)CC3)c(-c3ccccc3)c(=O)oc2c1	2.65
COc1ccc2c(OCCCN3CCN(Cc4ccc[nH]4)CC3)c(-c3ccccc3)c(=O)oc2c1	10.9
COc1ccc(CN2CCN(CCCOc3c(-c4ccccc4)c(=O)oc4cc(OC)ccc34)CC2)cc1	5.25
CCCOc1ccc(CN2CCN(CCCOc3c(-c4ccccc4)c(=O)oc4cc(OC)ccc34)CC2)cc1	1.02

Next, consider the following compound.
Summary for this compound, COc1ccc2c(OCCCN3CCN(Cc4ccccc4)CC3)c(-c3ccccc3)c(=O)oc2c1 : zone of inhibition at 600 µg/mL is 5.55

Hello, the source for this data is ChEMBL document CHEMBL3045792, in case you need it.
